biological target: AxCT mask27 EpCAM H90.2 L063 version 1
For each record, write down the corresponding Percent cleavage.
Give bare numbers, in %.

These recorded examples may help you get a feel for the data.
# PROTEIN, UNIT_TAG, Percent cleavage
records = [
    ("Matriptase (protein) VVGGTDADEGEWPWQVSLHALGQGHICGASLISPNWLVSAAHCYIDDRGFRYSDPTQWTAFLGLHDQSQRSAPGVQERRLKRIISHPFFNDFTFDYDIALLELEKPAEYSSMVRPICLPDASHVFPAGKAIWVTGWGHTQYGGTGALILQKGEIRVINQTTCENLLPQQITPRMMCVGFLSGGVDSCQGDSGGPLSSVEADGRIFQAGVVSWGDGCAQRNKPGVYTRLPLFRDWIKENTGV", "%", 68),
    ("Neutrophil Elastase (protein) IVGGRRARPHAWPFMVSLQLRGGHFCGATLIAPNFVMSAAHCVANVNVRAVRVVLGAHNLSRREPTRQVFAVQRIFENGYDPVNLLNDIVILQLNGSATINANVQVAQLPAQGRRLGNGVQCLAMGWGLLGRNRGIASVLQELNVTVVTSLCRRSNVCTLVRGRQAGVCFGDSGSPLVCNGLIHGIASFVRGGCASGLYPDAFAPVAQFVNWIDSIIQ", "%", 0),
    ("MMP-1 (protein) FVLTEGNPRWEQTHLTYRIENYTPDLPRADVDHAIEKAFQLWSNVTPLTFTKVSEGQADIMISFVRGDHRDNSPFDGPGGNLAHAFQPGPGIGGDAHFDEDERWTNNFREYNLHRVAAHELGHSLGLSHSTDIGALMYPSYTFSGDVQLAQDDIDGIQAIYGRSQNPVQPIGPQTPKACDSKLTFDAITTIRGEVMFFKDRFYMRTNPFYPEVELNFISVFWPQLPNGLEAAYEFADRDEVRFFKGNKYWAVQGQNVLHGYPKDIYSSFGFPRTVKHIDAALSEENTGKTYFFVANKYWRYDEYKRSMDPGYPKMIAHDFPGIGHKVDAVFMKDGFFYFFHGTRQYKFDPKTKRILTLQKANSWFNCRKN", "%", 0),
    ("MMP-7 (protein) YSLFPNSPKWTSKVVTYRIVSYTRDLPHITVDRLVSKALNMWGKEIPLHFRKVVWGTADIMIGFARGAHGDSYPFDGPGNTLAHAFAPGTGLGGDAHFDEDERWTDGSSLGINFLYAATHELGHSLGMGHSSDPNAVMYPTYGNGDPQNFKLSQDDIKGIQKLYGKRSNSRKK", "%", 48),
    ("MMP-12 (protein) GPVWRKHYITYRINNYTPDMNREDVDYAIRKAFQVWSNVTPLKFSKINTGMADILVVFARGAHGDFHAFDGKGGILAHAFGPGSGIGGDAHFDEDEFWTTHSGGTNLFLTAVHEIGHSLGLGHSSDPKAVMFPTYKYVDINTFRLSADDIRGIQSLYGDPKENQRLPNPDNSEPALCDPNLSFDAVTTVGNKIFFFKDRFFWLKVSERPKTSVNLISSLWPTLPSGIEAAYEIEARNQVFLFKDDKYWLISNLRPEPNYPKSIHSFGFPNFVKKIDAAVFNPRFYRTYFFVDNQYWRYDERRQMMDPGYPKLITKNFQGIGPKIDAVFYSKNKYYYFFQGSNQFEYDFLLQRITKTLKSNSWFGC", "%", 33),
]

Note: attention shifts to another entry.
Recorded Percent cleavage for Cathepsin G (protein) IIGGRESRPHSRPYMAYLQIQSPAGQSRCGGFLVREDFVLTAAHCWGSNINVTLGAHNIQRRENTQQHITARRAIRHPQYNQRTIQNDIMLLQLSRRVRRNRNVNPVALPRAQEGLRPGTLCTVAGWGRVSMRRGTDTLREVQLRVQRDRQCLRIFGSYDPRRQICVGDRRERKAAFKGDSGGPLLCNNVAHGIVSYGKSSGVPPEVFTRVSSFLPWIRTTMRS , please?
0

Data provenance: patent US20240336909
